- System: E. coli
- ASSAY REMARKS: Checkerboard assay (MIC in combination, FIC index)
- Format: cell-based, Escherichia coli
- CONDITIONS: antibiotic combined with LNT113; E. coli CCARM 1A746
QUANTITY NAME: Fractional inhibitory concentration index (FICI) of LNT113 using various antibiotics
Respond with the number and no other words.

## Task // Input: CC(C)(O/N=C(\C(=O)N[C@@H]1C(=O)N2C(C(=O)[O-])=C(C[n+]3ccccc3)CS[C@H]12)c1csc(N)n1)C(=O)O [Ceftazidime] . Output its Fractional inhibitory concentration index (FICI) of LNT113 using various antibiotics only.
## Result 2

## Task // Input: CC[C@H]1OC(=O)[C@H](C)[C@@H](O[C@H]2C[C@@](C)(OC)[C@@H](O)[C@H](C)O2)[C@H](C)[C@@H](O[C@@H]2O[C@H](C)C[C@H](N(C)C)[C@H]2O)[C@](C)(O)C[C@@H](C)CN(C)[C@H](C)[C@@H](O)[C@]1(C)O [Azithromycin] . Output its Fractional inhibitory concentration index (FICI) of LNT113 using various antibiotics only.
## Result 1

## Task // Input: CN(C)c1cc(NC(=O)CNC(C)(C)C)c(O)c2c1C[C@H]1C[C@H]3[C@H](N(C)C)C(O)=C(C(N)=O)C(=O)[C@@]3(O)C(O)=C1C2=O [Tigecycline] . Output its Fractional inhibitory concentration index (FICI) of LNT113 using various antibiotics only.
## Result 2

## Task // Input: C[C@@H](O)[C@H]1C(=O)N2C(C(=O)O)=C(S[C@@H]3CN[C@H](C(=O)N(C)C)C3)[C@H](C)[C@H]12 [Meropenem] . Output its Fractional inhibitory concentration index (FICI) of LNT113 using various antibiotics only.
## Result 1
